# MEASUREMENT DESCRIPTION: Pharmacokinetic evaluation of liquid bevirimat dosage forms, oral gavage, male Cynomolgus monkeys
# SETTINGS: male, cynomolgus monkey, in vivo, po, 50 mg, Cmax, 12.5 mg FAE/mL in 15% EtOH:0.5% TPGS:15% PG:5% Glycerin, 0.2% Povidone K90, 50 mg FAE/monkey oral gavage; monkeys 117,118,119,AVG
MEASUREMENT NAME: Cmax (µg/mL)
Only the number, expressed in µg/mL, is required.

q: What value of Cmax has been recorded for this entry: C=C(C)[C@@H]1CC[C@]2(C(=O)O)CC[C@]3(C)[C@H](CC[C@@H]4[C@@]5(C)CC[C@H](OC(=O)CC(C)(C)C(=O)O)C(C)(C)[C@@H]5CC[C@]43C)[C@@H]12
a: 51.3
